Target: T1, T4 clamp loader (gp44/gp62), wild type;T4 sliding clamp gp45 (bacteriophage T4;bacteriophage T4, UniProt P04526;P04527;P04525 1-319;1-187;1-228, |)
T1 sequence 1: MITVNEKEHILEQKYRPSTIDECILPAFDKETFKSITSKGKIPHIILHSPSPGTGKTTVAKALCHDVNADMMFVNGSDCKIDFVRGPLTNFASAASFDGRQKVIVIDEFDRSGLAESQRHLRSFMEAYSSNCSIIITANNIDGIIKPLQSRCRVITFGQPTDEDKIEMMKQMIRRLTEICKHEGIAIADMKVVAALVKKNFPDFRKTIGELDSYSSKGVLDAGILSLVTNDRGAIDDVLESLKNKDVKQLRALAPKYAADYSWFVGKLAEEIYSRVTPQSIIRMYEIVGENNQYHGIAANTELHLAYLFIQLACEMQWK
T1 sequence 2: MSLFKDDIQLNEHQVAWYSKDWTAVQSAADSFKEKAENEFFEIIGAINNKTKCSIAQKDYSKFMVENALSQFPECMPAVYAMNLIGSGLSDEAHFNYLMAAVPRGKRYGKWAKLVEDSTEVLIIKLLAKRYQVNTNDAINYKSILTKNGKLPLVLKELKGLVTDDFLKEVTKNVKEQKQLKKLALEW
T1 sequence 3: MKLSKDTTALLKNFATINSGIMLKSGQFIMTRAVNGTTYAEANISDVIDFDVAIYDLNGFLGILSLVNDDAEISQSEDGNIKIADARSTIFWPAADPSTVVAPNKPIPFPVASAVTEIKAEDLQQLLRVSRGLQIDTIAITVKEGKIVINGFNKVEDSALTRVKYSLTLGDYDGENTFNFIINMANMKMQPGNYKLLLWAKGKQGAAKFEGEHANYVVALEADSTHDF
Assay: fluorescence anisotropy
pKd: −log10 of the molar value.
OUTCOME MEASURE: pKd

Lookup: Return reported pKd; argument: TAMRA primer-template DNA (dsDNA) DNA 1: TTTTTTTTTTTTATGTACTCGTAGTGTCTG DNA 2: GCAGACACTACGAGTACATA
Found: ~7.40
